Data provenance: patent US20230382920A1

Assay: Pharmacokinetics study of KDG-0271 in male CD1 mice (Example 3)
Assay type: in vivo
Settings: mouse; male CD1 mice, plasma, 200 mg/kg PO, 2 h; read-out: Concentration PO_Mean
measure.name: concentration at 2 h (ng/mL)
Answer format: numeric, ng/mL implied, no suffix.

Q. Give the reported value of concentration at 2 h for this record: Cc1n[nH]c2c1C(c1cc(C#CC3CN(C(=O)OC(C)(C)C)C3)cc(CO)c1)(C(C)C)C(C#N)=C(N)O2 (stereo not shown)
A. 836

---

Tested on: HCT116
Test: HCT116 growth inhibition assay
Type: cell-based
Conditions: without formate
measure.name: IC50

>>> result("Cc1n[nH]c2c1C(c1cc(C#C[C@H]3C[C@H](C(C)(C)O)C3)cc(C(C)(C)O)c1)(C(C)C)C(C#N)=C(N)O2 (some centres unmarked)")
"C″"
>>> result("Cc1n[nH]c2c1C(c1cc(C#C[C@@H]3C[C@H]3CO)cc(CO)c1)(C(C)C)C(C#N)=C(N)O2 (some centres unmarked)")
"C″"
>>> result("Cc1n[nH]c2c1C(c1cc(C#C[C@H]3C[C@](C)(NC(=O)OC(C)(C)C)C3)cc(CO)c1)(C(C)C)C(C#N)=C(N)O2 (some centres unmarked)")
"B″"
>>> result("Cc1n[nH]c2c1C(c1cc(C#C[C@H]3C[C@@H](NC(=O)OC(C)(C)C)C3)cc(CF)c1)(C(C)C)C(C#N)=C(N)O2 (some centres unmarked)")
"B″"
>>> result("Cc1nnc(C23CC(C#Cc4cc(CO)cc(C5(C(C)C)C(C#N)=C(N)Oc6[nH]nc(C)c65)c4)(C2)C3)o1 (centres unmarked)")
"B″"
>>> result("Cc1n[nH]c2c1C(c1cc(C#N)cc(C#CC3CN(C(=O)OC(C)(C)C)C3)c1)(C(C)C)C(C#N)=C(N)O2 (centres unmarked)")
"B″"
>>> result("Cc1n[nH]c2c1C(c1cc(C#C[C@H]3C[C@H](COC(N)=O)C3)cc(C(C)(C)O)c1)(C(C)C)C(C#N)=C(N)O2 (some centres unmarked)")
"C″"
>>> result("COC(=O)N[C@H]1C[C@@H](C#Cc2cc(CO)cc(C3(C(C)C)C(C#N)=C(N)Oc4[nH]nc(C)c43)c2)C1 (some centres unmarked)")
"B″"

Q. Give the reported value of IC50 for this record: Cc1n[nH]c2c1C(c1cc(C#C[C@H]3CC[C@@H](NC(=O)OC(C)(C)C)C3)cc(CO)c1)(C(C)C)C(C#N)=C(N)O2 (some centres unmarked)
A. A″

Q. Give the reported value of IC50 for this record: Cc1n[nH]c2c1C(c1cc(C#C[C@@H]3CC[C@@H]3CNC(=O)OC(C)(C)C)cc(CO)c1)(C(C)C)C(C#N)=C(N)O2 (some centres unmarked)
A. B″

Q. Give the reported value of IC50 for this record: Cc1n[nH]c2c1C(c1cc(C#CC3CN(C(=O)OC(C)(C)C)C3)cc(CF)c1)(C(C)C)C(C#N)=C(N)O2 (centres unmarked)
A. A″

Q. Give the reported value of IC50 for this record: COC(=O)N1CCC(C)(C#Cc2cc(CO)cc(C3(C(C)C)C(C#N)=C(N)Oc4[nH]nc(C)c43)c2)CC1 (centres unmarked)
A. B″

Q. Give the reported value of IC50 for this record: Cc1n[nH]c2c1C(c1cc(C#CC3(C)CCN(C(=O)OC(C)(C)C)C3)cc(CO)c1)(C(C)C)C(C#N)=C(N)O2 (centres unmarked)
A. B″

Q. Give the reported value of IC50 for this record: Cc1n[nH]c2c1C(c1cc(C#C[C@H]3C[C@@H](NC(=O)CC(C)(C)C)C3)cc(CO)c1)(C(C)C)C(C#N)=C(N)O2 (some centres unmarked)
A. B″
